Test system: mice
stated.conditions: in vivo, sc
endpoint: local reactions (D35), Mouse No. 1

>>> observed("[Cl][Mn][Cl] [MnCl^2+, reference compound]")
"+++"
>>> observed("O=C([O-])[C@H](O)[C@@H](O)[C@H](O)[C@H](O)CO.[K+]")
"−"
>>> observed("O=P([O-])([O-])OCC(O)CO.[Mn+2] (stereo not shown)")
"−"
>>> observed("O=C([O-])[C@H](O)[C@@H](O)[C@H](O)[C@H](O)CO.O=C([O-])[C@H](O)[C@@H](O)[C@H](O)[C@H](O)CO.[Ca+2]")
"−"

* * *

Here, each record is paired with measured Humoral response data.
System: total IgG and total IgG1
method.description: Humoral response, comparison of calcium salts (Example 4)
Format: in vivo, OF1 mice
stated.conditions: 0.5 mg of calcium salt, 50 μg antigen, 100 μl s.c.; injection repeated on D28; antibodies assayed on D42
endpoint: Humoral response

>>> observed("O=P([O-])([O-])O.[Ca+2]")
"64,000"
>>> observed("O=C([O-])[O-].[Ca+2]")
"32,000"
>>> observed("O=C([O-])[C@H](O)[C@@H](O)[C@H](O)[C@H](O)CO.O=C([O-])[C@H](O)[C@@H](O)[C@H](O)[C@H](O)CO.[Ca+2]")
"128,000"
>>> observed("[Ca+2].[Cl-].[Cl-]")
"64,000"
